system: Burkholderia cepacia; test: Antibacterial activity against Burkholderia cepacia 6/06 after 24 hrs by microdilution serial twofold assay; format: functional

| substance | MIC |
| --- | --- |
| H-KALWKTMLKKLGTMAL-NH2 | 42 µM |
| H-ALYKTMLKKLGTMAL-NH2 | > 45 µM |
| H-ALWKTMLKKLGTMAL-NH2 | 23.7 µM |
| H-ALHKTMLKKLGTMAL-NH2 | > 45 µM |
| H-ALLKTMLKKLGTMAL-NH2 | > 48 µM |
| H-ALFKTMLKKLGTMAL-NH2 | > 46 µM |

----------
system: Escherichia coli; assay: Antibacterial activity against Escherichia coli HB101 after 3 hrs by microdilution serial twofold assay; type: functional; conditions: HB101, 3 h, read-out: LD50 (the source's name)
Square brackets hold non-standard residues; d marks the D form. Peptide text beside a SMILES is read from it. 1Nal = N[C@@H](Cc1cccc2ccccc12)C(=O)O

| compound | experimental target | LC50 |
| --- | --- | --- |
| CSCC[C@H](NC(=O)[C@@H](NC(=O)CNC(=O)[C@H](CC(C)C)NC(=O)[C@H](CCCCN)NC(=O)[C@H](CCCCN)NC(=O)[C@H](CC(C)C)NC(=O)[C@H](CCSC)NC(=O)[C@@H](NC(=O)[C@H](CCCCN)NC(=O)[C@H](Cc1cccc2ccccc12)NC(=O)[C@H](CC(C)C)NC(=O)[C@H](C)NC(=O)[C@@H](N)CCCCN)[C@@H](C)O)[C@@H](C)O)C(=O)N[C@@H](C)C(=O)N[C@@H](CC(C)C)C(N)=O (H-KAL[1Nal]KTMLKKLGTMAL-NH2) | Escherichia coli | < 800 nM |
